Numbers sourced from patent US20250296971A1.

Listing: IC50 of selected compounds
target: GIPR (CHO-K1-hGIPR cells) (Homo sapiens); construct: host or cells: CHO-K1; assay: FACS binding assay; settings: competition with 20 nM GIP-057, 4° C. for 1 hour, read-out: pIC50 Category (converted)
Sequence (P48546 22-466): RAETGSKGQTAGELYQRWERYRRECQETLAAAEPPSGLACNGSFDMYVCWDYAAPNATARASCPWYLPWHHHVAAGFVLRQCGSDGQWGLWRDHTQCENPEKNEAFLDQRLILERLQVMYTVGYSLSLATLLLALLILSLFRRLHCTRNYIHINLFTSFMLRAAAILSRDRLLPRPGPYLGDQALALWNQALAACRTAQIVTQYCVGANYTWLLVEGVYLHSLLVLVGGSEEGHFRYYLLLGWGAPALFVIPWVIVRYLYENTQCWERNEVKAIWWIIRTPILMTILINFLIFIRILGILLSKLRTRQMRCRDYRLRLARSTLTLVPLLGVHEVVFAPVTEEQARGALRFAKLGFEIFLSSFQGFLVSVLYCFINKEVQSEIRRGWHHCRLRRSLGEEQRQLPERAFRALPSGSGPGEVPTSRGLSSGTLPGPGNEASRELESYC
*1 amine or outer side, *2 acyl side, *3 side chain or, on linkers, in order; H or OH if unused. Where a SMILES comes first, the peptide text is derived from it. Bridges are numbered along the chain shown (N, C = ends). [ ]: non-standard residue; d: D form. The star is where a group is joined. X3 = O=C(O)CN1CCN(CC(=O)O)CCN(CC(=O)NCCCOCCOCCOCCCN*)CCN(CC(=O)O)CC1; Trp(5-Cl) = N[C@@H](Cc1c[nH]c2ccc(Cl)cc12)C(=O)O; Phe(3,4-Cl2) = N[C@@H](Cc1ccc(Cl)c(Cl)c1)C(=O)O; Pyridine(2,6-diCH2) = c1cc(C[*:1])nc(C[*:2])c1; Oic = O=C(O)[C@@H]1C[C@@H]2CCCC[C@@H]2N1; Pro(4,4-F2) = O=C(O)[C@@H]1CC(F)(F)CN1; 1Nal = N[C@@H](Cc1cccc2ccccc12)C(=O)O; mXylylene = c1cc(C[*:1])cc(C[*:2])c1; Hyp = O=C(O)[C@@H]1C[C@@H](O)CN1; Suc = O=C(CCC(=O)[*:2])[*:1]; Thp = NC1(C(=O)O)CCOCC1; Aib = CC(C)(N)C(=O)O

Please review the following examples before continuing.
CC[C@H](C)[C@@H]1NC(=O)[C@H](CC(C)C)NC(=O)C(C)(C)NC(=O)[C@@H](NC(=O)[C@H](CC(C)C)NC(=O)[C@H](CCC(=O)O)NC(=O)[C@@H]2CC(F)(F)CN2C(=O)[C@H](Cc2cccc3ccccc23)NC(=O)[C@H](Cc2c[nH]c3ccccc23)NC(=O)[C@H](CC(=O)O)NC(C)=O)CSCc2cccc(c2)CSC[C@@H](C(N)=O)NC1=O [GIP-341] (Ac-DW[1Nal][Pro(4,4-F2)]ELC[Aib]LIC-NH2; linker 7-11 via mXylylene)    > 1000 nM
CC(=O)N[C@@H](CC(=O)O)C(=O)N[C@@H](Cc1c[nH]c2ccccc12)C(=O)N[C@@H](Cc1c[nH]c2ccc(Cl)cc12)C(=O)N1C[C@H](O)C[C@H]1C(=O)N[C@@H](CCC(=O)O)C(=O)N[C@H](CC(C)C)C(=O)N[C@H]1CSCc2cccc(n2)CSC[C@@H](C(N)=O)NC(=O)[C@H](CO)NC(=O)[C@H](CC(C)C)NC(=O)C2(CCOCC2)NC1=O [GIP-322] (Ac-DW[Trp(5-Cl)][Hyp]E[dL]C[Thp]LSC-NH2; linker 7-11 via Pyridine(2,6-diCH2))    100 to 794 nM
CC[C@H](C)[C@@H]1NC(=O)[C@H](CC(C)C)NC(=O)[C@@H](C)NC(=O)[C@@H](NC(=O)[C@@H](CC(C)C)NC(=O)[C@H](CCC(=O)O)NC(=O)[C@@H]2CCCN2C(=O)[C@H](Cc2c[nH]c3ccccc23)NC(=O)[C@H](Cc2c[nH]c3ccccc23)NC(=O)[C@H](CC(=O)O)NC(=O)CCC(=O)NCCCOCCOCCOCCCNC(=O)CN2CCN(CC(=O)O)CCN(CC(=O)O)CCN(CC(=O)O)CC2)CSCc2cccc(c2)CSC[C@@H](C(=O)O)NC1=O [GIP-285] ({X3-Suc}-DWWPE[dL]C[dA]LIC-OH; linker 7-11 via mXylylene)    > 1000 nM

Query: Quick check: IC50 of CC[C@H](C)[C@@H]1NC(=O)[C@H](CC(C)C)NC(=O)C(C)(C)NC(=O)[C@@H](NC(=O)[C@H](CC(C)C)NC(=O)[C@H](CCC(=O)O)NC(=O)[C@@H]2C[C@@H](O)CN2C(=O)[C@H](Cc2c[nH]c3ccccc23)NC(=O)[C@H](Cc2c[nH]c3ccccc23)NC(=O)CCC(=O)O)CSCc2cccc(c2)CSC[C@@H](C(N)=O)NC1=O [GIP-319] (Suc-WW[Hyp]ELC[Aib]LIC-NH2; linker 6-10 via mXylylene) ?
Result: 100 to 794 nM

Query: Quick check: IC50 of CC[C@H](C)[C@@H]1NC(=O)[C@H](CC(C)C)NC(=O)C2(CCOCC2)NC(=O)[C@@H](NC(=O)[C@@H](CC(C)C)NC(=O)[C@H](CCC(=O)O)NC(=O)[C@@H]2C[C@@H]3CCCC[C@@H]3N2C(=O)[C@H](Cc2ccc(Cl)c(Cl)c2)NC(=O)[C@H](Cc2ccc(Cl)c(Cl)c2)NC(=O)[C@H](CC(=O)O)NC(C)=O)CSCc2cccc(n2)CSC[C@@H](C(N)=O)NC1=O [GIP-356] (Ac-D[Phe(3,4-Cl2)][Phe(3,4-Cl2)][Oic]E[dL]C[Thp]LIC-NH2; linker 7-11 via Pyridine(2,6-diCH2)) ?
Result: > 1000 nM
